# system: human ether-à-go-go-related gene (hERG) potassium channel (human);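 also: peak tail current of the secondary pulse compared with the same well before compound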
# Sequence (Q12809 whole entry, looked up): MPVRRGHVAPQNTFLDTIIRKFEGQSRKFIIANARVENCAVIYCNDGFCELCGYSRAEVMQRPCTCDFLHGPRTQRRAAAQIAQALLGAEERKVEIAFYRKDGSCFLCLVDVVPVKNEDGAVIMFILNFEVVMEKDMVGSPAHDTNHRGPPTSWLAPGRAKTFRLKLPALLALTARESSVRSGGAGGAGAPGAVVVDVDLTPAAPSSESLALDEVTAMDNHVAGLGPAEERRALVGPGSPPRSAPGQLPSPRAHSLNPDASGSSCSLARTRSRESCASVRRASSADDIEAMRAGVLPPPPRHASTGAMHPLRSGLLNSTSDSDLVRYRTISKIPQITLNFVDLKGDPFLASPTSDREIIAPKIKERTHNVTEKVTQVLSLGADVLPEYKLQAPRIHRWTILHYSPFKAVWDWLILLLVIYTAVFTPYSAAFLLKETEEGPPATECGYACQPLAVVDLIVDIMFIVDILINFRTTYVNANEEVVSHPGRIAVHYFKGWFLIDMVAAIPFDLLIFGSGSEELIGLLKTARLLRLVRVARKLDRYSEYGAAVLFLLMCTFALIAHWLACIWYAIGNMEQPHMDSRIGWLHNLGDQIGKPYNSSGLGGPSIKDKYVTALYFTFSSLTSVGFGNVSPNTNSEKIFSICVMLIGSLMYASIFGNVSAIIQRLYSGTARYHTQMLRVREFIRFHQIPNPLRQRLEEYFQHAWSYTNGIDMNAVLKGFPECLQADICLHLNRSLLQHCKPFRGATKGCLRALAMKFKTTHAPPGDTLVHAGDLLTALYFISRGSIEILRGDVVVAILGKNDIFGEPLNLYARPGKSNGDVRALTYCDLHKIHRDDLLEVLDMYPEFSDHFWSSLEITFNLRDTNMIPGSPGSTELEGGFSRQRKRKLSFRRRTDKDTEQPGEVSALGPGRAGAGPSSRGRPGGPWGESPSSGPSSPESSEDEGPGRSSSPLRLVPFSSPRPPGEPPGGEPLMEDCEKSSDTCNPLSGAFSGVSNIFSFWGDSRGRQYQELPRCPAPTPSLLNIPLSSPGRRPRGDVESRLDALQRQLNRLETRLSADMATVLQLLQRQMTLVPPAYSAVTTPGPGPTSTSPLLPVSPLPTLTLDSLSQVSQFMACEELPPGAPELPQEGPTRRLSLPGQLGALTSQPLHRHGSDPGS
# experiment.notes: primary screen, population patch clamp on CHO cells stably expressing hERG; higher = less effect of the substance
In all, about 310,000 compounds went through this assay and about 14,000 (4.5%) showed an effect of 50% or more. Effects have a minus sign here. This excerpt belongs to a sample that is enriched for strong results.
Reported hERG current change (%, negative = inhibition) at 10uM values follow for various compounds
quantity.name: hERG current change (%, negative = inhibition) at 10uM (%)

{"compound": "CCc1ccc(NC(=O)C2CCCN2S(=O)(=O)c2ccc3c(c2)C(C)(C)C(=O)N3C)cc1 (stereo not shown)", "endpoint.result": -51}
{"compound": "CCOc1ccc(NC(=O)C2CCCN2S(=O)(=O)c2ccc3c(c2)C(C)(C)C(=O)N3C)cc1 (stereo not shown)", "endpoint.result": -6.75}
{"compound": "Cc1cc(C)cc(NC(=O)C2CCCN2S(=O)(=O)c2ccc3c(c2)C(C)(C)C(=O)N3C)c1 (stereo not shown)", "endpoint.result": -38.7}
{"compound": "CC(=O)N1c2ccc(S(=O)(=O)N3CCCC3C(=O)Nc3cccc(F)c3)cc2CC1C (stereo not shown)", "endpoint.result": -32.8}
{"compound": "Cc1ccc(CSc2nc3ccncc3n2CC(=O)Nc2cc(C)cc(C)c2)cc1", "endpoint.result": 7.38}
{"compound": "CC(CCc1ccccc1)NCc1ccncc1 (stereo not shown)", "endpoint.result": -8.72}
{"compound": "CCN(CC(=O)NCc1ccc(F)cc1)C(=O)Cc1c(F)cccc1Cl", "endpoint.result": -37.6}
{"compound": "COc1ccc(CCC(C)NCCc2ccc(Cl)cc2Cl)cc1 (stereo not shown)", "endpoint.result": -71.8}
{"compound": "CSc1ccc(CNC(=O)C2Cc3cc(S(=O)(=O)N4CCCCC4)ccc3N2C(C)=O)cc1 (stereo not shown)", "endpoint.result": -57.1}
{"compound": "CSc1ccc(CNC(=O)C2Cc3cc(S(=O)(=O)N4CCCC4)ccc3N2C(C)=O)cc1 (stereo not shown)", "endpoint.result": -38.2}
{"compound": "CCN(CC(=O)Nc1c(F)cccc1F)C(=O)CCNS(=O)(=O)c1ccc(C)c(C)c1", "endpoint.result": 1.26}
{"compound": "COC(=O)CN1C(=O)C(O)(CC(=O)c2cccc(Br)c2)c2ccccc21 (stereo not shown)", "endpoint.result": -11.7}
{"compound": "COc1ccc(CCNC(C)CCc2ccc(OC)cc2)cc1 (stereo not shown)", "endpoint.result": -13}
{"compound": "CCN(CC(=O)NCc1ccc(F)cc1)C(=O)c1ccc(C)o1", "endpoint.result": 6.13}
{"compound": "CC(CCc1ccc(O)cc1)NCc1ccc(Cl)cc1Cl (stereo not shown)", "endpoint.result": -63.8}
{"compound": "CCc1cccc(NC(=O)C2CCN(S(=O)(=O)c3ccc4c(c3)CC(C)N4C(C)=O)CC2)c1 (stereo not shown)", "endpoint.result": 2.05}
{"compound": "CC(CCc1ccccc1)NCc1ccc(Cl)cc1Cl.O=C(O)C(=O)O (stereo not shown)", "endpoint.result": -31.5}
{"compound": "COc1ccc(-c2nc(Cn3c(SCc4cccc(F)c4)nc4ccncc43)c(C)o2)cc1OC", "endpoint.result": -62.4}
{"compound": "CCc1cccc(NC(=O)C2CCCN2S(=O)(=O)c2ccc3c(c2)CC(C)N3C(C)=O)c1 (stereo not shown)", "endpoint.result": -71.2}

---

Reported hERG current change (%, negative = inhibition) at 10uM values follow for various compounds
# system: human ether-à-go-go-related gene (hERG) potassium channel (human);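 also: peak tail current of the secondary pulse compared with the same well before compound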
# experiment.notes: primary screen, population patch clamp on CHO cells stably expressing hERG; higher = less effect of the substance
Out of some 310,000 compounds screened, about 14,000 (4.5%) showed an effect of 50% or more. The effect is printed as a negative number. The entries come from a sample that favours strong results as a whole.
quantity.name: hERG current change (%, negative = inhibition) at 10uM (%)

{"compound": "CCCNC(=O)CSc1nccn1Cc1ccco1", "endpoint.result": 0.203}
{"compound": "CCC1CCCCN1CCCNC(=O)c1ccc2c(c1)NC(=O)CS2 (stereo not shown)", "endpoint.result": 4.27}
{"compound": "CCN(C(=O)COc1ccccc1C(=O)NCc1ccccc1)C1CCS(=O)(=O)C1 (stereo not shown)", "endpoint.result": -22.1}
{"compound": "CC(=O)NC1CC2CCCC(C1)N2Cc1ccc(C)cc1 (stereo not shown)", "endpoint.result": -30.5}
{"compound": "CCCNC(=O)c1n[nH]c2c1CC(C(C)(C)CC)CC2 (stereo not shown)", "endpoint.result": 1.27}
{"compound": "Cc1nn(-c2ccccc2)c(C)c1CN(C)C(=O)c1ccc(S(=O)(=O)NCc2ccco2)cc1", "endpoint.result": -21.2}
{"compound": "COc1cccc(/C=C2/Sc3ccc(C(=O)NCCN4CCCCCC4)cc3NC2=O)c1", "endpoint.result": -47.3}
{"compound": "O=C(NC1CC2CCCC(C1)N2Cc1ccc(F)cc1)c1ccc(F)cc1 (stereo not shown)", "endpoint.result": -70.8}
{"compound": "COc1ccc(CNC(=O)CSc2n[nH]c(N)n2)cc1", "endpoint.result": 20.1}
{"compound": "COc1ccc(CNC(=O)CSc2ccc(Br)cc2)cc1OC", "endpoint.result": -63.1}
{"compound": "COc1ccccc1-c1coc2c(CN3CCCC(C)C3)c(O)ccc2c1=O (stereo not shown)", "endpoint.result": -2.44}
{"compound": "CC(=O)Cc1nsc(NC(=O)c2ccc(-c3cc(C(F)(F)F)ccc3Cl)o2)n1", "endpoint.result": 22.7}
{"compound": "CN(Cc1cccs1)C(=O)c1ccc(S(=O)(=O)NCc2ccco2)cc1", "endpoint.result": -54.2}
{"compound": "Cc1nnc(NC(=O)c2cc(-c3ccco3)nc3ccccc23)s1", "endpoint.result": 2.18}
{"compound": "CCN(CC)c1ncc(C#N)c(N)n1", "endpoint.result": 8.37}
{"compound": "Cc1cccc(/C=C2/Sc3ccc(C(=O)NCCCN4CCOCC4)cc3NC2=O)c1", "endpoint.result": -25.3}
{"compound": "Cc1ccc(C=Nc2ccc(N(C)C)cc2)o1", "endpoint.result": -0.267}
{"compound": "CCC1CCCCN1CCCNC(=O)c1ccc(/C=C2/Sc3ccccc3NC2=O)cc1 (stereo not shown)", "endpoint.result": -76.9}
{"compound": "O=C(NCC1CCCO1)c1ccccc1-c1nc(-c2ccc(F)cc2)no1 (stereo not shown)", "endpoint.result": -31.1}
{"compound": "O=C1Nc2cc(C(=O)N3CCC(N4CCCCC4)CC3)ccc2S/C1=C\\c1ccccc1", "endpoint.result": -58.3}
{"compound": "COc1ccc(CNC(=O)CSc2n[nH]c(N)n2)cc1OC", "endpoint.result": -77.5}
{"compound": "CC1CCN(C(=O)c2ccc3c(c2)NC(=O)/C(=C/c2ccccc2)S3)CC1", "endpoint.result": 11}
{"compound": "COc1ccc(S(=O)(=O)NCc2ccc(C(=O)N(C)Cc3ccco3)cc2)cc1", "endpoint.result": -19.1}
{"compound": "CCCNC(=S)NC1CC2CCCC(C1)N2Cc1ccc(F)cc1 (stereo not shown)", "endpoint.result": -60.6}
{"compound": "Cn1cc(CN2CCC(Oc3ccc(C(=O)N4CCCCC4)cc3)CC2)cn1", "endpoint.result": 8.81}
{"compound": "CCc1nnc(NC(=O)CSc2ccc(-c3ccc(C)cc3)nn2)s1", "endpoint.result": 9.49}
{"compound": "CCCCn1c(N)c(N(CC(C)C)C(=O)CN2C(=O)c3ccccc3C2=O)c(=O)[nH]c1=O", "endpoint.result": -7.79}
{"compound": "CCN1CCN(CCCNC(=O)c2ccc3c(c2)NC(=O)/C(=C\\c2cccc(C)c2)S3)CC1", "endpoint.result": -38.6}
{"compound": "Nn1c(SCC(=O)Nc2ccc(S(N)(=O)=O)cc2)nnc1C(F)(F)F", "endpoint.result": 0.037}
{"compound": "CCC(=O)NC1CC2CCCC(C1)N2Cc1ccc(C)cc1 (stereo not shown)", "endpoint.result": -37.4}
{"compound": "COc1ccc(CCNC(=O)CSc2ccc(Br)cc2)cc1OC", "endpoint.result": 23}
{"compound": "COc1ccccc1CN(C)C(=O)c1ccc(S(=O)(=O)NCc2ccco2)cc1", "endpoint.result": -14.9}
{"compound": "CCN(CC(=O)NCc1ccc(Cl)cc1)C(=O)c1ccc(S(=O)(=O)N(C)C)cc1", "endpoint.result": -33.2}
{"compound": "CCN(CC(=O)Nc1c(F)cccc1F)C(=O)c1ccc(S(=O)(=O)NCc2ccco2)cc1", "endpoint.result": 8.72}
{"compound": "COC(=O)CCCC(NC(=S)N1CC2C[C@@H](C1)Cn1c2cccc1=O)C(=O)OC (stereo partly shown)", "endpoint.result": 8.56}
{"compound": "C=CCOc1ccccc1CN1CCC(Oc2ccc(C(=O)N3CCCCC3)cc2)CC1", "endpoint.result": -57.6}
{"compound": "CCCCC(=O)Nc1nnc(SCC(=O)NCC2CCCO2)s1 (stereo not shown)", "endpoint.result": -24.8}
{"compound": "CCN1CCCC1CNC(=O)c1ccc2c(c1)NC(=O)/C(=C\\c1ccc(C)cc1)S2 (stereo not shown)", "endpoint.result": -42.4}
{"compound": "CN(Cc1ccc(Cl)cc1)C(=O)c1ccc(S(=O)(=O)NCc2ccco2)cc1", "endpoint.result": -51.8}
{"compound": "CC(C)c1ccc(CN2CCC(Oc3ccc(C(=O)N4CCCC4)cc3)CC2)cc1", "endpoint.result": -71.6}

Reference source for all entries: paper PMC4336329
